Target: IL-23R (Homo sapiens)
Sequence (Q5VWK5 24-629): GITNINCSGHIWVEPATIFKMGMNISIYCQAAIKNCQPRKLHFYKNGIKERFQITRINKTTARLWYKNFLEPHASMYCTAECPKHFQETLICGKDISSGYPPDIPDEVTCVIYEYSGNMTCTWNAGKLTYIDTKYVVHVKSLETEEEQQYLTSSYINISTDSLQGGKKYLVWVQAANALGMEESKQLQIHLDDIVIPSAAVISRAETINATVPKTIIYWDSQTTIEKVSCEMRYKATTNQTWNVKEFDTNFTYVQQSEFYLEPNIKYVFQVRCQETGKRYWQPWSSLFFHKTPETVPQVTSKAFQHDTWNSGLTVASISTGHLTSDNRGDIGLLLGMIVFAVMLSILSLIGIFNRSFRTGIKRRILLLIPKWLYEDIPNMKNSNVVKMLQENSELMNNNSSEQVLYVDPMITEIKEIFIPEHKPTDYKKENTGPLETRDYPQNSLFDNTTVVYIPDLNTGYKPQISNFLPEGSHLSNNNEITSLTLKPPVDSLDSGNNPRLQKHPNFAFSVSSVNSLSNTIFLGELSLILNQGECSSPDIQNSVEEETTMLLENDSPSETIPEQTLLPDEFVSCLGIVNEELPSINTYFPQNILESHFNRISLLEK
Test: IL-23R reporter assay (HEK293, STAT-inducible luciferase)
Details: Table 4; HEK293 cells with IL-23R, IL-12Rβ1 and STAT-inducible luciferase reporter, stimulated with IL-23
Where a SMILES comes first, the peptide text is derived from it. Bridges are numbered along the chain shown (N, C = ends). [ ]: non-standard residue; d: D form. 2Nal = N[C@@H](Cc1ccc2ccccc2c1)C(=O)O; AEF = NCCOc1ccc(C[C@H](N)C(=O)O)cc1; 3Pal = N[C@@H](Cc1cccnc1)C(=O)O; Pen = CC(C)(S)[C@H](N)C(=O)O; Thp = NC1(C(=O)O)CCOCC1; Sar = CNCC(=O)O
measured_endpoint: pIC50
Keep it numeric: pIC50 is minus log10 of the concentration in mol/L.

-- ask Retrieve pIC50 measured for CC(=O)NCCCC[C@@H]1NC(=O)[C@H](Cc2c[nH]c3c(C)cccc23)NC(=O)[C@H]([C@@H](C)O)NC(=O)[C@H](CC(N)=O)NC(=O)[C@@H](NC(=O)CCCCCCN)C(C)(C)SSC(C)(C)[C@@H](C(=O)N[C@H]2Cc3ccc(cc3)OCCNC(=O)CC[C@@H](C(=O)N[C@@H](CC(N)=O)C(=O)N[C@@H](Cc3cccnc3)C(=O)N(C)CC(N)=O)NC(=O)C3(CCOCC3)NC(=O)[C@H](Cc3ccc4ccccc4c3)NC2=O)NC1=O and print it.
-- reply 6.37

-- ask Retrieve pIC50 measured for CC(=O)NCCCC[C@@H]1NC(=O)[C@H](Cc2c[nH]c3c(C)cccc23)NC(=O)[C@H]([C@@H](C)O)NC(=O)[C@H](CC(N)=O)NC(=O)[C@H]2NC(=O)CCCCCCNC(=O)CC[C@@H](C(=O)N[C@@H](CC(N)=O)C(=O)N(C)[C@H](Cc3ccc(O)cc3)C(N)=O)NC(=O)C3(CCOCC3)NC(=O)[C@H](Cc3ccc4ccccc4c3)NC(=O)[C@H](Cc3ccc(OCCN)cc3)NC(=O)[C@@H](NC1=O)C(C)(C)SSC2(C)C and print it.
-- reply 6.08

-- ask Retrieve pIC50 measured for CC(=O)NCCCC[C@@H]1NC(=O)[C@H](Cc2c[nH]c3ccccc23)NC(=O)[C@H]([C@@H](C)O)NC(=O)[C@H]2CCC(=O)NCCOc3ccc(cc3)C[C@@H](C(=O)N[C@@H](Cc3ccc4ccccc4c3)C(=O)NC3(C(=O)N[C@@H](CCCCNC(C)=O)C(=O)N[C@@H](CO)C(=O)N[C@@H](Cc4cccnc4)C(=O)N(C)CC(N)=O)CCOCC3)NC(=O)[C@@H](NC1=O)C(C)(C)SSC(C)(C)[C@H](NC(C)=O)C(=O)N2 [Example 4] (Ac-[Pen][dE]TWK(Ac)[Pen][AEF][2Nal][Thp]K(Ac)S[3Pal][Sar]-NH2; disulfide 1-6; lactam 2-7) and print it.
-- reply 6.48

Attribution: patent US20240352073A1
